Values compiled from ChEMBL document CHEMBL1151962.

Readout label: pIC50
As a rule, pIC50 stands for the negative log10 of the concentration, concentration in M.

For CNC(=O)c1nn(C)c2c1C(C)(C)Cc1cnc(Nc3cccc(N4CCN(C)CC4)c3)nc1-2 on Aurora kinase A (Homo sapiens, UniProt O14965), measured pIC50 was 6.00

For CNC(=O)c1nn(C)c2c1C(C)(C)Cc1cnc(Nc3cccc(OC4CCN(C)CC4)c3)nc1-2 on Aurora kinase A (Homo sapiens, UniProt O14965), measured pIC50 was 5.80

For CNC(=O)c1nn(C)c2c1C(C)(C)Cc1cnc(Nc3cccc(CN4CCOCC4)c3)nc1-2 on Aurora kinase A (Homo sapiens, UniProt O14965), measured pIC50 was 6.20
